# Test system: HepG2
# protocolDetails: Antiproliferative activity against human HepG2 cells by MTT assay
# Assay type: functional, cell-based
pIC50: −log10 of the molar value.
endpoint: pIC50

smilesStructure	limitOperator	val
CN1CCN(c2nn3c(=O)c4cc(Br)ccc4nc3c3ccccc23)CC1	=	4.39
O=c1c2cc(Br)ccc2nc2c3ccccc3c(NCCN3CCCC3)nn12	=	5.28
CCCCNc1nn2c(=O)c3cc(Br)ccc3nc2c2ccccc12	<	4.00
CCN(CC)CCNc1nn2c(=O)c3cc(Br)ccc3nc2c2ccccc12	=	5.52
CCOC(=O)CNc1nn2c(=O)c3cc(Br)ccc3nc2c2ccccc12	<	4.00
O=c1c2cc(Br)ccc2nc2c3ccccc3c(N3CCOCC3)nn12	<	4.00

----------
# System: HepG2
# protocolDetails: Antiproliferative activity against human HepG2 cells by MTT assay
# Type: functional, cell-based
Entries and their measured IC50 follow.

smilesStructure	limitOperator	IC50 (µM)
CN(C)CCCNc1nn2c(=O)c3cc(Br)ccc3nc2c2ccccc12	=	2.2
CC(C)N(CCNc1nn2c(=O)c3cc(Br)ccc3nc2c2ccccc12)C(C)C	=	11.7
CCOC(=O)CCNc1nn2c(=O)c3cc(Br)ccc3nc2c2ccccc12	>	100
Cc1ccc2nc3c4ccccc4c(N4CCOCC4)nn3c(=O)c2c1	>	100
Cc1ccc2nc3c4ccccc4c(NCCCN4CCOCC4)nn3c(=O)c2c1	=	24.1
Cc1ccc2nc3c4ccccc4c(NCCN(C)C)nn3c(=O)c2c1	=	4.97

----------
# Tested on: HepG2
# protocolDetails: Antiproliferative activity against human HepG2 cells by MTT assay
# Type: functional, cell-based
pIC50: −log10 of the molar value.
Entries and their measured pIC50 follow.

compound	limitOperator	pIC50
O=c1c2cc(Br)ccc2nc2c3ccccc3c(NCCN3CCOCC3)nn12	=	4.95
CN(C)CCCNc1nn2c(=O)c3cc(F)ccc3nc2c2ccccc12	=	4.97
CN(C)CCNc1nn2c(=O)c3cc(Cl)ccc3nc2c2ccccc12	=	5.31
O=c1c2ccccc2nc2c3ccccc3c(N3CCOCC3)nn12	=	4.03
O=c1c2ccccc2nc2c3ccccc3c(NCCCN3CCOCC3)nn12	=	4.52
CN(C)CCNc1nn2c(=O)c3cc(Br)ccc3nc2c2ccccc12	=	5.42
Cc1ccc2nc3c4ccccc4c(N4CCN(C)CC4)nn3c(=O)c2c1	=	4.26
O=c1c2cc(Br)ccc2nc2c3ccccc3c(NCCN3CCCCC3)nn12	=	5.38
CC[C@@]1(O)C(=O)OCc2c1cc1n(c2=O)Cc2cc3cc(O)ccc3nc2-1 [HYDROXYCAMPTOTHECIN]	=	5.26
CN1CCN(c2nn3c(=O)c4cc(Cl)ccc4nc3c3ccccc23)CC1	=	4.24
CN(C)CCCNc1nn2c(=O)c3cc(Cl)ccc3nc2c2ccccc12	=	5.06
O=c1c2cc(F)ccc2nc2c3ccccc3c(NCCCN3CCOCC3)nn12	=	4.35
O=c1c2cc(Br)ccc2nc2c3ccccc3c(NCCCN3CCOCC3)nn12	=	4.89
CN1CCN(c2nn3c(=O)c4ccccc4nc3c3ccccc23)CC1	=	4.40
O=c1c2cc(F)ccc2nc2c3ccccc3c(N3CCOCC3)nn12	<	4.00
O=c1c2cc(Cl)ccc2nc2c3ccccc3c(NCCCN3CCOCC3)nn12	=	4.74
CN(C)CCCNc1nn2c(=O)c3ccccc3nc2c2ccccc12	=	4.94
CN(C)CCNc1nn2c(=O)c3cc(F)ccc3nc2c2ccccc12	=	5.33
O=c1c2cc(Cl)ccc2nc2c3ccccc3c(N3CCOCC3)nn12	<	4.00
CN1CCN(c2nn3c(=O)c4cc(F)ccc4nc3c3ccccc23)CC1	=	4.28
Cc1ccc2nc3c4ccccc4c(NCCCN(C)C)nn3c(=O)c2c1	=	5.11
CN(C)CCNc1nn2c(=O)c3ccccc3nc2c2ccccc12	=	4.99
